Each entry below carries its recorded Kb.
# Target of assay: human Orexin 1 receptor (Homo sapiens, UniProt O43613)
# Construct: stably expressing the full-length human Orexin 1 receptor; expressed in transfected cells; host or cells: CHO-K1 (CHO-K1/hOx1), co-expressing the aequorin photoprotein
# Sequence (O43613 whole entry): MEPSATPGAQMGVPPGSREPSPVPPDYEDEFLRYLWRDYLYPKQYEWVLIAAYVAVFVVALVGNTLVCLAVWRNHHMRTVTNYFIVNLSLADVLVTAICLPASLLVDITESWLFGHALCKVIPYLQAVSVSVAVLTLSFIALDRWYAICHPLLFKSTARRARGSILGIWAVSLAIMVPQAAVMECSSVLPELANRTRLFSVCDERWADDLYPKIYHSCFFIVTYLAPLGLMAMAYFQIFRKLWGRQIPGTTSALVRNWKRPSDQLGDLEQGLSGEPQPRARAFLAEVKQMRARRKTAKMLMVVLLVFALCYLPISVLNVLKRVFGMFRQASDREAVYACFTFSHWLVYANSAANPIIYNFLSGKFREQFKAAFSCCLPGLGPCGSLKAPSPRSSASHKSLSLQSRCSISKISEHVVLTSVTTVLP
# Experiment description: Assay A: OX1R IP1 (in vitro OX1R potency)
# Assay type: cell-based
# Assay context: Table 3; 50 nM Orexin A; read-out: Assay A OX1R Kb (Orexin A concentration)

| Structure as smiles | Kb, nM |
| --- | --- |
| CCN(C(=O)c1cccc(C)c1-n1nccn1)[C@@H](C)COc1ncc(C(F)(F)F)cn1 | 1.4 |
| CCN(C(=O)c1ccccc1-c1ncccn1)[C@@H](C)COc1ncc(C(F)(F)F)cn1 | 0.74 |
| CCN(C(=O)c1cccc(F)c1-n1nccn1)[C@@H](C)COc1ncc(C(F)(F)F)cn1 | 2.5 |
| CCN(C(=O)c1cc(C)ccc1-n1nccn1)[C@@H](C)COc1ncc(C(F)(F)F)cn1 | 1.1 |
| CCN(C(=O)c1cc(OC)ccc1-n1nccn1)[C@@H](C)COc1ncc(C(F)(F)F)cn1 | 1.21 |
| CCN(C(=O)c1cccc(F)c1-c1ncccn1)[C@@H](C)COc1ncc(C(F)(F)F)cn1 | 0.46 |
| CCN(C(=O)c1ccc(C)c(C)c1-n1nccn1)[C@@H](C)COc1ncc(C(F)(F)F)cn1 | 0.65 |
| CCN(C(=O)c1ccc(C)cc1-n1nccn1)[C@@H](C)COc1ncc(C(F)(F)F)cn1 | 0.38 |
| CCN(C(=O)c1cc(C)c(C)cc1-n1nccn1)[C@@H](C)COc1ncc(C(F)(F)F)cn1 | 0.39 |
| CCN(C(=O)c1ccc(F)cc1-c1ncccn1)[C@@H](C)COc1ncc(C(F)(F)F)cn1 | 1.4 |
| CCN(C(=O)c1cccc(C)c1-c1nnc(C)o1)[C@@H](C)COc1ncc(C(F)(F)F)cn1 | 1.9 |
| CCN(C(=O)c1ccccc1-n1nccn1)[C@@H](C)COc1ncc(C(F)(F)F)cn1 | 2.6 |
